- System: S. cerevisiae Mot1-301 ts growth rescue, BacTiter-Glo ATP luminescence
- protocol.details: restored Mot1-301 yeast growth at 38.5C – whole organism, S. cerevisiae, Mot1-301 ts mutant, luminescence, dose retest, SUMOylation pathway inhibitor project, confirmation (AID 463204);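 also: growth at restrictive 38.5 degrees C of Mot1-301 OY566 strain; actives raise luminescence by restoring growth of the ts mutant at high temperature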
The source made the active and inactive calls.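 The calls were made as follows: active = AC50 no more than ten times the top concentration tested, that is within one log above it; inconclusive = flat curve fit with activity between 30% and 70%, or invalid poor fit; inactive = AC50 beyond ten times the top tested dose.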
A correct response names exactly one class from active, inactive

compound | class.label
N#Cc1c(NC(=O)c2ccc([N+](=O)[O-])o2)sc2c1CCC2 | active

Query: Field: outcome | Entry: Cc1ccc(Cn2c(NCCc3ccccc3)nc3c2c(=O)n(C)c(=O)n3C)cc1
Result: inactive

Query: Field: outcome | Entry: Cc1cccc(N2CN=c3s/c(=C\c4ccccn4)c(=O)n3C2)c1
Result: inactive

Query: Field: outcome | Entry: COc1ccc(N2CC(C(=O)N3CCc4ccccc43)CC2=O)cc1 (stereo not given)
Result: inactive

Query: Field: outcome | Entry: CCn1nc(CC(=O)Nc2ccc(-n3cnnn3)c(C)c2)c2ccccc2c1=O
Result: inactive

Query: Field: outcome | Entry: c1ccc(CNc2ccc3ccccc3n2)nc1
Result: inactive

Query: Field: outcome | Entry: CCOC(=O)N1CCC(Nc2nc3ccccc3n3nnnc23)CC1
Result: inactive

Query: Field: outcome | Entry: O=C(Nc1ccc(F)cc1F)N1CCCN(c2ccc(C(F)(F)F)cn2)CC1
Result: inactive

Query: Field: outcome | Entry: CN(C(=S)NC1=CCS(=O)(=O)C1)C1CCCCC1
Result: inactive

Query: Field: outcome | Entry: CCOC(=O)c1sc(NC(=O)CSc2n[nH]c(-c3ccccc3)n2)c(C#N)c1C
Result: active

Origin of the recorded values: PubChem BioAssay AID463204
